assayed-target: Serotonin 5-HT1A receptor (Homo sapiens)
Sequence (P08908 whole entry): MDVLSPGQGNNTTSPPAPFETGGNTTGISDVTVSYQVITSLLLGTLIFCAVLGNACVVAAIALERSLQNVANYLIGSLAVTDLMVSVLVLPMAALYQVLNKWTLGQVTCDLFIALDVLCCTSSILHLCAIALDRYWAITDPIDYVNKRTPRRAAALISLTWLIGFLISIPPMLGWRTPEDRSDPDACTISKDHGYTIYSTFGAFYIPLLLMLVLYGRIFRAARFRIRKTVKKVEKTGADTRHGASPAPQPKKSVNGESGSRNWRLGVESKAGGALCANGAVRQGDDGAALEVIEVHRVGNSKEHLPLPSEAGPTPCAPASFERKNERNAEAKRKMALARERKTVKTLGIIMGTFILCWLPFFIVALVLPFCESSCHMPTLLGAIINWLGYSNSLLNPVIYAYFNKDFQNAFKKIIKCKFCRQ
protocol-summary: GTPγS Scintillation Proximity Assay, agonist and antagonist mode
Type: biochemical
reported-conditions: agonist mode, bound stated; read-out: EC50 value for the Serotonin 5-HT1A receptor
endpoint-name: EC50

1. CCN(CC)C(=O)N[C@H]1C[C@@H]2c3cccc4[nH]c(Br)c(c34)C[C@H]2N(C)C1 :: < 1000 nM

Values were extracted from patent US10815235B2.
